system: SKBR3; assay: Full dose-response, survival of cancer cell line (SRB assay); assay type: cell-based; conditions: Homo sapiens, SK-BR-3; breast cancer; 48 hours of drug treatment; average of three individual experiments
For each entry below, report its IC50 value.
Answers are plain numbers, in µM.

- COMPOUND: "CC1(C)[C@H]2COc3ccc4ccccc4c3[C@H]2N=C2SC(c3ccccc3)=C(c3ccccc3)N21"
  UNIT_DESCRIPTOR: "µM"
  IC50: 1.9
- COMPOUND: "CC(=O)Nc1ccc(C2=CSC3=N[C@@H]4c5c(ccc6ccccc56)OC[C@@H]4C(C)(C)N23)cc1"
  UNIT_DESCRIPTOR: "µM"
  IC50: 6.4
- COMPOUND: "COc1cccc2c1C(=O)c1c(O)c3c(c(O)c1C2=O)C[C@@](O)(C(=O)CO)C[C@@H]3O[C@H]1C[C@H](N)[C@H](O)[C@H](C)O1 [Doxorubicin, reference compound]"
  UNIT_DESCRIPTOR: "µM"
  IC50: 0.25
- COMPOUND: "COc1ccc(OC)c(C2=CSC3=N[C@@H]4c5c(ccc6ccccc56)OC[C@@H]4C(C)(C)N23)c1"
  UNIT_DESCRIPTOR: "µM"
  IC50: 10.1
- COMPOUND: "CC1=C(c2ccccc2)N2C(=N[C@@H]3c4c(ccc5ccccc45)OC[C@@H]3C2(C)C)S1"
  UNIT_DESCRIPTOR: "µM"
  IC50: 9.4
- COMPOUND: "CC1=C(c2ccc(Br)cc2)N2C(=N[C@@H]3c4c(ccc5ccccc45)OC[C@@H]3C2(C)C)S1"
  UNIT_DESCRIPTOR: "µM"
  IC50: 7.6

Incoming: Query IC50 for CC1=C(c2ccc(Cl)c(Cl)c2)N2C(=N[C@H]3c4cc5c6c(c4OC[C@@H]3C2(C)C)CCCN6CCC5)S1
Outgoing: 1.4
